molecular target: Neprilysin (Rattus norvegicus); experiment: The compound was tested for inhibition of Neutral endopeptidase by using GAAP as substrate
Sequence (P07861 whole entry): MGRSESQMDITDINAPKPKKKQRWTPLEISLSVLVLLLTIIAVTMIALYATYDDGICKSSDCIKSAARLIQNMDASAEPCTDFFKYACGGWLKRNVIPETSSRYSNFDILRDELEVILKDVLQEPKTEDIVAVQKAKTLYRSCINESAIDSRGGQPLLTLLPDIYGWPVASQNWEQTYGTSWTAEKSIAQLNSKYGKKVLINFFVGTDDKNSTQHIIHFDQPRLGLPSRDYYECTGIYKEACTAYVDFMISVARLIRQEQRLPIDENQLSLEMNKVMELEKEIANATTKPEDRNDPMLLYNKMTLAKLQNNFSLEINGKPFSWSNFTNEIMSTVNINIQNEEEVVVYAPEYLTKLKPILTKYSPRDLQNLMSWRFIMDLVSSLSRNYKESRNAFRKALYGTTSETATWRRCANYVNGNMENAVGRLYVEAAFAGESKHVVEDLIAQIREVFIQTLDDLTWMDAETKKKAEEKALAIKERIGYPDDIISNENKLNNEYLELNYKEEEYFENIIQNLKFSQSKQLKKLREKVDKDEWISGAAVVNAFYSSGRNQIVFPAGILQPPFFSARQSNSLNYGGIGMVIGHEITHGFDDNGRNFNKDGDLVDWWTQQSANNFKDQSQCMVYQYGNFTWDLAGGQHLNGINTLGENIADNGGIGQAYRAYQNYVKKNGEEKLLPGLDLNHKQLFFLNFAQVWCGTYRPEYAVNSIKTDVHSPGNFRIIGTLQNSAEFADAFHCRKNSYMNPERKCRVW
pIC50: −log10 of the molar value.
valueType: pIC50

a = O=C(O)CCNC(=O)[C@H](Cc1ccccc1)C[C@@H](Cc1ccccc1)C(=O)O
b = O=C(O)CCNC(=O)[C@@H](CCC(=O)O)Cc1ccc(-c2ccccc2)cc1
Inquiry: Identify the entry with the larger pIC50. Options: a and b The response must carry the label of the picked entry.
Reply text: b
